- Test system: human CD33
- Method: Biacore SPR binding kinetics of anti-CD33 scFv-Fc clones with or without 10 µM MTX
- Settings: CD33; 10 µM MTX; 37° C., pH 7.4; scFv-Fc
Recorded metric: kon, kinetics toward antigen with 10 µM MTX
Param answer (str): number followed by unit.

molecule="P01_B02: anti-CD33 clone with increased affinity in presence of MTX; VH SEQ ID NO: 31, VL SEQ ID NO: 32 (antibody, V domains shown, Synthetic Antibody) VH: QVQLVESGGGLVQAGGSLRLSCAASRRSSRSWAMHWVRQAPGKGLEWVAVISYDGRLKYYADSVKGRFTISRDNAEYLVYLQMNSLRAEDTAVYYCAAADWYSGGGDALDIWGQGTLVTVSS VL: DIQMTQSPSSLSASVGDRVTITCRASQTIYNYLNWYQQKPGKAPKLLIYGASNLQSGVPSRFSGSGSGTDFTLTISSLQPEDFATYYCQQTYSSPTFGQGTKVEIK" reported_result="390000 M⁻¹ s⁻¹"

Now take the following molecule into account.
Lab note: P02_D08: anti-CD33 clone with conditional affinity; VH SEQ ID NO: 13, VL SEQ ID NO: 14 (antibody, V domains shown, Synthtic Antibody; Synthetic Antibody) VH: QVQLVESGGGLVQAGGSLRLSCAASRRSSRSWAMHWVRQAPGKGLEWVAVISYDGRLKYYADSVKGRFTISRDNAEYLVYLQMNSLRAEDTAVYYCAAERGDGLDGNVGLDIWGQGTLVTVSS VL: DIQMTQSPSSLSASVGDRVTITCRASQSISKYLNWYQQKPGKAPKLLIYGASTLQSGVPSRFSGSGSGTDFTLTISSLQPEDFATYYCQQSYSSGTFGQGTKVEIK gave kon, kinetics toward antigen with 10 µM MTX of 88000 M⁻¹ s⁻¹

Each recorded value in this set is attributed to patent US20230192839A1.
